Origin of values: PubChem BioAssay

assay-remarks: thallium flux activation in parental CHO cells, counter-screen for KCNQ1 potentiator project (AID 493006);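 on activation: fluorescence ratio of max minus min over baseline after K+ and Tl+ depolarization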
conditions: parental CHO-K1 cells, FluxOR thallium flux, at 10 µM
Activity calls are given as the source filed them.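 How the source made its calls: active means duplicate-averaged activation above buffer control mean plus 5 SD of those controls; inactive means the rest.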
Outcomes: Y = active, N = inactive

{"molecule": "COc1ccc(CNC(=O)C2CC(c3cccc(OC)c3)=NO2)cc1 (stereo not given)", "category-label": "N"}
{"molecule": "COc1cc(O)c2c(=O)c(-c3ccc(O[C@@H]4O[C@H](CO)[C@@H](O)[C@H](O)[C@H]4O)cc3)coc2c1", "category-label": "N"}
{"molecule": "CS(=O)(=O)NN1C(=O)c2ccccc2NC1c1ccccc1F (stereo not given)", "category-label": "Y"}
{"molecule": "N#C/C(=C/c1cn(-c2ccccc2)nc1-c1cccc(OCc2ccc(F)cc2)c1)C(=O)NCCCn1ccnc1", "category-label": "N"}
{"molecule": "O=C(NC(=S)N(CCc1ccccc1)CCc1ccccc1)c1ccco1", "category-label": "Y"}
{"molecule": "COc1ccccc1C(=O)NC(=S)NNC(=O)c1sc2ccccc2c1Cl", "category-label": "Y"}
{"molecule": "O=C(/C=C/c1ccc(Br)cc1)NC(=S)Nc1ccc(S(=O)(=O)Nc2nccs2)cc1", "category-label": "N"}
{"molecule": "COCCCn1c(=S)[nH]c2sc3c(c2c1=O)CCCS3", "category-label": "Y"}
{"molecule": "CCOc1ccc2nc(/N=C/c3c(C)[nH]n(-c4ccccc4)c3=O)sc2c1", "category-label": "Y"}
{"molecule": "OC(c1cc(C(F)(F)F)nc2c(Cl)cc(Cl)cc12)C1CCCCN1 (stereo not given)", "category-label": "N"}
{"molecule": "CC(/C=C1\\SC(=S)N(NS(=O)(=O)c2ccc(C)cc2)C1=O)=C\\c1ccccc1", "category-label": "Y"}
{"molecule": "CCOc1ccc(S(=O)(=O)Nc2cc(OC)ccc2OC)cc1", "category-label": "N"}
{"molecule": "O=C1c2ccccc2NC(c2ccccc2O)N1O (stereo not given)", "category-label": "Y"}
{"molecule": "O=C(NC(=S)Nc1ccccc1N1CCCC1)c1ccccc1Br", "category-label": "Y"}
{"molecule": "Cc1ccc(NC(=O)CN(C)C(=O)CCOc2ccccc2C)cc1", "category-label": "N"}
{"molecule": "COc1ccccc1-n1cnc2cc(NCc3ccco3)ccc21", "category-label": "N"}
{"molecule": "Cc1onc(-c2ccccc2Cl)c1C(=O)Nc1ccccc1O", "category-label": "N"}
{"molecule": "Cc1ccc(C2C(C#N)=C(N)OC3=C2C(=O)CC(C)(C)C3)s1 (stereo not given)", "category-label": "N"}
{"molecule": "COc1ccc(-c2csc(NC(=S)NC(=O)c3ccco3)n2)cc1", "category-label": "Y"}
{"molecule": "Cc1ccc(CN2C(=O)CC(Nc3ccc(N4CCOCC4)cc3)C2=O)cc1 (stereo not given)", "category-label": "N"}
{"molecule": "CCSc1nc2c(sc3ccccc32)c(=O)n1C(C)C", "category-label": "Y"}
{"molecule": "S=c1[nH]nc(-c2ccccc2)n1/N=C/c1ccc(-c2ccccc2Cl)o1", "category-label": "N"}
{"molecule": "Cc1cc(Br)ccc1OCC(=O)NNC(=O)c1cnccn1", "category-label": "N"}
{"molecule": "COc1ccc(Cn2c(=O)c3[nH]cnc3n(-c3ccccc3C)c2=O)cc1", "category-label": "N"}
{"molecule": "COc1ccccc1C(=O)NNC(=S)NC(=O)c1sc2ccccc2c1Cl", "category-label": "Y"}
{"molecule": "CC(=O)OC1OCCOC1NC(=S)Nc1ccc(C)cc1 (stereo not given)", "category-label": "N"}
{"molecule": "CCn1c(=S)sc2nc(C)sc21", "category-label": "N"}
{"molecule": "CCCCCCOc1ccc(N2C(=O)CC(N3CCN(C(=O)c4ccco4)CC3)C2=O)cc1 (stereo not given)", "category-label": "N"}
{"molecule": "COc1ccc2oc(C(=O)OCC(=O)N3CC(C)OC(C)C3)c(C)c2c1 (stereo not given)", "category-label": "N"}
{"molecule": "CCC/C=N/NC(=O)c1[nH]c2c([N+](=O)[O-])cccc2c1C", "category-label": "N"}
{"molecule": "CCC1CCCCN1C(=S)NC(=O)c1cccs1 (stereo not given)", "category-label": "Y"}
{"molecule": "CCn1c(=S)[nH]c2sc3c(c2c1=O)CCCC3", "category-label": "Y"}
{"molecule": "COc1ccc(C(=O)On2c(-c3ccc(Br)cc3)nc3ccccc3c2=O)cc1", "category-label": "N"}
{"molecule": "O=C(Nc1nnc(-c2ccc3c(c2)CCCC3)o1)c1ccccc1Cl", "category-label": "Y"}
{"molecule": "CC(=O)Nc1ccc(NC(=O)c2cccc(C(=O)OC(C)C)n2)cc1", "category-label": "N"}
{"molecule": "COc1ccc(-c2csc(NC(=S)NC(=O)c3cccs3)n2)cc1Br", "category-label": "N"}
{"molecule": "CN1CCN(C=Nc2nc3ccccc3nc2N2CCCC2)CC1", "category-label": "N"}
{"molecule": "Cc1ccc(SCc2[nH]nc3c2C(c2ccco2)C(C#N)=C(N)O3)cc1 (stereo not given)", "category-label": "N"}
{"molecule": "COc1ccc(-n2nnnc2-c2ccccc2)cc1", "category-label": "N"}
{"molecule": "CCOC(=O)c1cccc(NC(=O)CCc2nnc3ccc(N4CCCCC4)nn23)c1", "category-label": "N"}
{"molecule": "CCCCn1c(-c2csc3c2CCC(C)C3)n[nH]c1=S (stereo not given)", "category-label": "Y"}
{"molecule": "O=c1[nH]c(C(Cl)(Cl)Cl)nc2ccc3ccccc3c12", "category-label": "Y"}
{"molecule": "C/C(=N\\NS(=O)(=O)c1ccc(Br)cc1)c1cccs1", "category-label": "N"}
{"molecule": "COC(=O)c1sccc1NC(=O)CSc1ccccc1NS(=O)(=O)c1ccc(Cl)cc1", "category-label": "N"}
{"molecule": "Cc1ccc(C)c(Cn2c(O)c(N=NC(=S)Nc3ccccc3F)c3ccccc32)c1", "category-label": "N"}
